The measured values listed here are drawn from paper PMC5013068.

assay-text: MTS cytotoxicity assay, A549
protocol-conditions: human, A549 cells (ATCC CCL-185)
The compounds listed here are annotated with their CC50.
measured-parameter: CC50 (µM)

[
  {
    "compound": "CCNc1nc(C)nc2sc(CC)cc12 [Fragment 1]",
    "measured-parameter": "CC50",
    "qualifying-sign": ">",
    "experimental-value": 2500
  },
  {
    "compound": "Cc1nc(-c2c[nH]c3ccccc23)cs1 [Fragment 9]",
    "measured-parameter": "CC50",
    "qualifying-sign": ">",
    "experimental-value": 2500
  },
  {
    "compound": "CC1CC(N)=NN1c1ccc(Cl)cn1 (stereo not drawn) [Fragment 8]",
    "measured-parameter": "CC50",
    "qualifying-sign": ">",
    "experimental-value": 2500
  },
  {
    "compound": "Cc1cc2nc(CN)[nH]c2cc1C [Fragment 10]",
    "measured-parameter": "CC50",
    "qualifying-sign": "=",
    "experimental-value": 1900
  },
  {
    "compound": "Clc1ccc(Oc2cnns2)c2ncccc12 [Fragment 2]",
    "measured-parameter": "CC50",
    "qualifying-sign": ">",
    "experimental-value": 2500
  },
  {
    "compound": "Cc1c(C)n(CC(O)CNC2CCCC2)c2c(Cl)cccc12 (stereo not drawn) [Fragment 4]",
    "measured-parameter": "CC50",
    "qualifying-sign": "=",
    "experimental-value": 60
  },
  {
    "compound": "N#CSC1C=CS(=O)(=O)C1 (stereo not drawn) [Fragment 6]",
    "measured-parameter": "CC50",
    "qualifying-sign": "=",
    "experimental-value": 1000
  },
  {
    "compound": "O=C(c1cc2cc(F)ccc2s1)N1CCC1 [Fragment 5]",
    "measured-parameter": "CC50",
    "qualifying-sign": ">",
    "experimental-value": 2500
  },
  {
    "compound": "COn1c(-c2ccc(Cl)cc2)nc2ncccc21 [Fragment 7]",
    "measured-parameter": "CC50",
    "qualifying-sign": "=",
    "experimental-value": 1800
  }
]

###

The compounds listed here are annotated with their MIC50.
Tested on: Mycobacterium tuberculosis H37Rv (ATCC 27294)

[
  {
    "compound": "CCNc1nc(C)nc2sc(CC)cc12 [Fragment 1]",
    "MIC50 (µM)": 40
  },
  {
    "compound": "COc1cccc2sc(S(C)(=O)=O)nc12 [Fragment 3]",
    "MIC50 (µM)": 52
  },
  {
    "compound": "Clc1ccc(Oc2cnns2)c2ncccc12 [Fragment 2]",
    "MIC50 (µM)": 43
  },
  {
    "compound": "O=C(c1cc2cc(F)ccc2s1)N1CCC1 [Fragment 5]",
    "MIC50 (µM)": 60
  },
  {
    "compound": "Cc1c(C)n(CC(O)CNC2CCCC2)c2c(Cl)cccc12 (stereo not shown) [Fragment 4]",
    "MIC50 (µM)": 55
  },
  {
    "compound": "Cc1cc2nc(CN)[nH]c2cc1C [Fragment 10]",
    "MIC50 (µM)": 131
  },
  {
    "compound": "N#CSC1C=CS(=O)(=O)C1 (stereo not shown) [Fragment 6]",
    "MIC50 (µM)": 92
  },
  {
    "compound": "CC1CC(N)=NN1c1ccc(Cl)cn1 (stereo not shown) [Fragment 8]",
    "MIC50 (µM)": 123
  },
  {
    "compound": "COn1c(-c2ccc(Cl)cc2)nc2ncccc21 [Fragment 7]",
    "MIC50 (µM)": 104
  },
  {
    "compound": "Cc1nc(-c2c[nH]c3ccccc23)cs1 [Fragment 9]",
    "MIC50 (µM)": 126
  }
]
